# Tested on: Streptococcus pneumoniae
# PROTOCOL TEXT: Antimicrobial activity against drug-resistant Streptococcus pneumoniae isolate 1076 after 35 passages with moxifloxacin measured after 10 antibiotic-free subculture by multi-step resistance selection technique
# Format: functional
Rule: measured MIC below 0.06 µg/mL gets t; anything equal to or greater than 0.06 µg/mL gets f.

Determine whether this compound shows MIC lower than 0.06 µg/mL (ties excluded): CC[C@H]1OC(=O)[C@H](C)[C@@H](O[C@H]2C[C@@](C)(OC)[C@@H](O)[C@H](C)O2)[C@H](C)[C@@H](O[C@@H]2O[C@H](C)C[C@H](N(C)C)[C@H]2O)[C@](C)(OC)C[C@@H](C)C(=O)[C@H](C)[C@@H](O)[C@]1(C)O [CLARITHROMYCIN] f

For this compound, is MIC lower than 0.06 µg/mL? C[C@@H](O)[C@H]1C(=O)N2C(C(=O)O)=C(SCCNC=N)C[C@H]12 [IMIPENEM ANHYDROUS] t

# strict comparison: is reported MIC < 0.06 µg/mL? input = CCC[C@@H]1C[C@@H](C(=O)N[C@@H]([C@H]2O[C@H](SC)[C@H](O)[C@@H](O)[C@H]2O)[C@H](C)Cl)N(C)C1 [CLINDAMYCIN] f

Record CC[C@H]1OC(=O)[C@H](C)C(=O)[C@H](C)[C@@H](O[C@@H]2O[C@H](C)C[C@H](N(C)C)[C@H]2O)[C@](C)(OC)C[C@@H](C)C(=O)[C@H](C)[C@H]2N(CCCCn3cnc(-c4cccnc4)c3)C(=O)O[C@]12C [TELITHROMYCIN] : is its MIC strictly below 0.06 µg/mL? f

Quick check: MIC of CO/N=C(\C(=O)N[C@@H]1C(=O)N2C(C(=O)O)=C(CSc3nc(=O)c(O)nn3C)CS[C@H]12)c1csc(N)n1 [CEFTRIAXONE] under 0.06 µg/mL? t

Lab log: compare recorded MIC with 0.06 µg/mL; is it strictly lower for CO/N=C1\CN(c2nc3c(cc2F)c(=O)c(C(=O)O)cn3C2CC2)CC1CN (stereo not drawn) [GEMIFLOXACIN] ? f

Is the reported MIC for CC[C@H]1OC(=O)[C@H](C)[C@@H](O[C@H]2C[C@@](C)(OC)[C@@H](O)[C@H](C)O2)[C@H](C)[C@@H](O[C@@H]2O[C@H](C)C[C@H](N(C)C)[C@H]2O)[C@](C)(O)C[C@@H](C)CN(C)[C@H](C)[C@@H](O)[C@]1(C)O [AZITHROMYCIN] strictly below 0.06 µg/mL? f

---

# Tested on: Streptococcus pneumoniae
# PROTOCOL TEXT: Antimicrobial activity against drug-resistant Streptococcus pneumoniae isolate 3676 after 44 passages with clarithromycin measured after 10 antibiotic-free subculture by multi-step resistance selection technique
# Type: functional
Exercise: for every item that follows, state its recorded MIC.

The compound C[C@@H](O)[C@H]1C(=O)N2C(C(=O)O)=C(SCCNC=N)C[C@H]12 [IMIPENEM ANHYDROUS] , when measured on Streptococcus pneumoniae, yielded MIC of 0.016 µg/mL

Log: Streptococcus pneumoniae, compound CC[C@H]1OC(=O)[C@H](C)[C@@H](O[C@H]2C[C@@](C)(OC)[C@@H](O)[C@H](C)O2)[C@H](C)[C@@H](O[C@@H]2O[C@H](C)C[C@H](N(C)C)[C@H]2O)[C@](C)(O)C[C@@H](C)CN(C)[C@H](C)[C@@H](O)[C@]1(C)O [AZITHROMYCIN] , MIC = 16 µg/mL

Test item CN(C)c1cc(NC(=O)CNC(C)(C)C)c(O)c2c1C[C@H]1C[C@H]3[C@H](N(C)C)C(O)=C(C(N)=O)C(=O)[C@@]3(O)C(O)=C1C2=O [TIGECYCLINE] ; Streptococcus pneumoniae; reported MIC was 0.03 µg/mL
